Biological target: Solute carrier family 2, facilitated glucose transporter member 1 (Homo sapiens) (UniProt P11166)
Sequence (P11166 whole entry): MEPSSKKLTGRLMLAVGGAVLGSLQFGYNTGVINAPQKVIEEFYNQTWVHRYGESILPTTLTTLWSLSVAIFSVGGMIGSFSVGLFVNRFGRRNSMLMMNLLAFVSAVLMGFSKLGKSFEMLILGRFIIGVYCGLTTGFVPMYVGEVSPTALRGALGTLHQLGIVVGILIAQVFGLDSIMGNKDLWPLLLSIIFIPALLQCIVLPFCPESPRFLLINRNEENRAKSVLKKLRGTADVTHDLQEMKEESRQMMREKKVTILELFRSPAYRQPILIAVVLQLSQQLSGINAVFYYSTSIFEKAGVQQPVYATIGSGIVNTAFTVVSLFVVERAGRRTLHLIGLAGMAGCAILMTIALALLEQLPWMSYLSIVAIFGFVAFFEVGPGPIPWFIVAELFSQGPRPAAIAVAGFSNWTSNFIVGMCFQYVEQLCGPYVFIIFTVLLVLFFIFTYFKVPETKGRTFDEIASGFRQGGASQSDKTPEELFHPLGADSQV
Assay: ST_JUDE_LEISH: Cytotoxicity at 2uM final concentration against transgenic Leishmania Mexicana promastigotes LmGLUT1 that are glucose transport deficient and complemented with the human glucose transporter GLUT1. Activity is measured by DNA content using SYBR green in vitro
Assay type: functional
attribute-measured: inhibition (%)
Form entry: value (%) — number only.

Data point: COc1ccc(C2SCC(=O)N2CCc2ccc(OC)c(OC)c2)cc1 (stereo not given) ; inhibition = 2.35

Form field inhibition, entry Cc1nc(-c2cccc(C(=O)Nc3cnc4ccccc4c3)c2)no1 : 5.51

Measured inhibition of Cc1cccc(-c2nc(Nc3ccncc3)c3ccc([N+](=O)[O-])cc3n2)n1 : 5.77

The measured inhibition associated with Cc1nc(Nc2ccncc2)cc(-c2ccncc2)n1 reads 0.59

Value of inhibition reported for the molecule O=[N+]([O-])c1ccc(-c2nc3cc(C4=NC5CCCCC5N4)ccc3[nH]2)cc1 (stereo not given) is -0.03

So for CSc1nccc(-c2ccc3ccnc(N)c3c2)n1 , the logged inhibition turned out to be 11.2

The measured inhibition associated with CCNc1cc(C)nc(Nc2ccc(NC(=O)c3ccccc3)cc2)n1 reads 6.94

According to the records, this molecule CC(C)C[C@@H](C(=O)Nc1ccc(Cc2ccc(NC(=O)[C@H](CC(C)C)N(C)C(=O)OC(C)(C)C)cc2)cc1)N(C)C(=O)OC(C)(C)C displays inhibition of 0.03

inhibition measured on Nc1c(I)cc(C(=O)Nc2ccc3nc4c(c(N)c3c2)CCCC4)cc1I = 2.52

Field inhibition (entry COc1cc(CCCOc2c(N)nc(N)nc2N)cc(OC)c1OC ) reads 4.82
